Tested on: SK-OV-3 ovarian
Assay: NCI-60 one-dose screen, 48 h (100 = growth as untreated, 0 = no growth, -100 = all killed)
Settings: 10 µM unless noted
The panel holds about 83,000 compounds, 20% with a hit somewhere; the sample as a whole holds those more often.
metric.name: growth (%)
Quick note: give the figure in %, leave out the unit.

Let me check: CCOC(=O)c1c(Nc2ccccc2)nn2c(-c3ccco3)c(C#N)cnc12 , system SK-OV-3 ovarian, measured growth is 109

Let me check: COC(=O)C1CN(S(=O)(=O)/N=C2\NC(=O)NC2=C(Cl)Cl)C1 , system SK-OV-3 ovarian, measured growth is 113

Let me check: CN(C)S(=O)(=O)c1oc(-c2ccccc2)nc1C#N , system SK-OV-3 ovarian, measured growth is 136

Let me check: [Cl][Ru].c1ccc(-c2cc(-c3ccccn3)nc(-c3ccccn3)c2)cc1.c1ccc(-c2ccnc3c2ccc2c(-c4ccccc4)ccnc23)cc1 , system SK-OV-3 ovarian, measured growth is -12.1

Let me check: OC1CCN(CCCOc2c3ccccc3nc3c2oc2ccccc23)CC1 , system SK-OV-3 ovarian, measured growth is -10.8

Let me check: Nc1nc(N)c2c(n1)NC(c1ccc(F)cc1)CC(c1ccc(Nc3nc(NCCO)nc(Nc4ccc(Cl)cc4)n3)cc1)=N2 (stereo unspecified) , system SK-OV-3 ovarian, measured growth is 84

Let me check: O=C1Nc2cc(Cl)ccc2/C1=C\c1ccc(OCc2ccc([N+](=O)[O-])cc2)cc1 , system SK-OV-3 ovarian, measured growth is 98

Let me check: N#Cc1nc(-c2ccccc2)oc1S(=O)(=O)N1CCN(CCc2ccccn2)CC1 , system SK-OV-3 ovarian, measured growth is 137

Let me check: Clc1ccc2oc3c(OCCCn4ccnc4)c4ccccc4nc3c2c1 , system SK-OV-3 ovarian, measured growth is 112

Let me check: O=C(N/N=C/c1ccc[nH]1)c1[nH]c2ccc(Br)cc2c1-c1ccccc1 , system SK-OV-3 ovarian, measured growth is 36.7

Let me check: Cc1ccccc1NC(=O)/C=C/c1ccc(OCCOc2ccc3c(C)cc(=O)oc3c2)cc1 , system SK-OV-3 ovarian, measured growth is 77.6

Let me check: Cn1c(SCC(=O)Nc2ccc(-c3nc4ccc([N+](=O)[O-])cc4[nH]3)cc2)nc2ccccc2c1=O , system SK-OV-3 ovarian, measured growth is 120

Let me check: COc1ccc(C(=O)/C=C/c2ccc(OCc3ccc(Cl)cc3)c(OC)c2)cc1OC , system SK-OV-3 ovarian, measured growth is 82.9

Let me check: COc1cc(/C=C/C(=O)c2ccc(Cl)cc2)ccc1Oc1nc(NCCO)nc(N2CCOCC2)n1 , system SK-OV-3 ovarian, measured growth is 96.6

Let me check: Nc1ncc(-c2ccc3ncnc(N4CCc5cc(F)c(Cl)cc54)c3c2)cc1CO , system SK-OV-3 ovarian, measured growth is -18.4

Let me check: Cc1nc2cnc(N)c(C#Cc3cncc(C(=O)Nc4ccc(Cl)c(C(F)(F)F)c4)c3)c2nc1C , system SK-OV-3 ovarian, measured growth is 120

###

Tested on: BT-549 breast
Assay: NCI-60 one-dose screen, 48 h (100 = growth as untreated, 0 = no growth, -100 = all killed)
Conditions: 10 µM unless noted
Compounds without any hit were thinned out: in the full panel of roughly 83,000, 20% have a hit.
Can you tell me growth for the items I'm about to list?
Quick note: give the figure in %, leave out the unit.

Let me check: COc1ccccc1C(=O)CSc1nc(Nc2ccc(S(N)(=O)=O)cc2)c2ccccc2n1 , system BT-549 breast, measured growth is 111

Let me check: Cc1sc2nc(NCc3ccccc3Cl)[nH]c(=O)c2c1C , system BT-549 breast, measured growth is 99.8

Let me check: O=C1[C@H]2Cc3c([nH]c4ccccc34)[C@@H](c3ccc(Br)cc3)N2C(=O)CN1C1CCN(Cc2ccccc2)CC1 , system BT-549 breast, measured growth is 93.4

Let me check: c1ccc2c(NCCCN3CCOCC3)c3oc4ccccc4c3nc2c1 , system BT-549 breast, measured growth is 3.61

Let me check: Cn1ccnc1C(=O)/C=C/c1ccc(NC(=O)Nc2ccc(Cl)cc2)cc1 , system BT-549 breast, measured growth is 63.6

Let me check: C#Cc1nc(C2=C(C)C(=O)/C(=N/OC(C)=O)C2)cs1 , system BT-549 breast, measured growth is 95

Let me check: O=C(CCCN1C(=O)/C(=C/c2ccccc2F)SC1=S)N1CCOCC1 , system BT-549 breast, measured growth is 114

Let me check: CCCC(=O)NC(c1cccc(N(C)C)c1)c1cc(C)c2cccnc2c1O (centres undefined) , system BT-549 breast, measured growth is 78.4

Let me check: CS(=O)(=O)c1ccc(-c2nc3ccccn3c2/C=N/Nc2nc(-c3ccc(Br)cc3)cs2)cc1 , system BT-549 breast, measured growth is 114

###

Tested on: NCI/ADR-RES ovarian
Assay: NCI-60 one-dose screen, 48 h
Settings: 10 µM unless noted
This is part of a sample that, as a whole, favours compounds with a hit. Of some 83,000 tested, about 20% had one in any assay. Activity calls are given as the source filed them. How the source made its calls: active means growth percent below 10; inactive means the rest.
Just give me one of these, please: active, inactive

Q: Could you check what this test reported for Nc1cc(-c2c[nH]c3ccc(Cl)cc23)nc2cc(-c3c[nH]c4ccc(Cl)cc34)nn12 ?
Result: inactive

Q: Could you check what this test reported for Cn1ccnc1C(=O)/C=C/c1ccc(NC(=O)Nc2ccc(Cl)cc2)cc1 ?
Result: inactive

Q: Could you check what this test reported for Clc1ccc(Cc2nnc3sc(-c4cccnc4)nn23)cc1 ?
Result: inactive

Q: Could you check what this test reported for O=c1[nH]c2ccc(Cl)cc2cc1CSc1ccccc1Nc1nccc(-c2ccc(Cl)cc2)n1 ?
Result: inactive

Q: Could you check what this test reported for CCCC(=O)NC(c1cccnc1)c1cc(C)c2cccnc2c1O (configuration not stated) ?
Result: inactive

Q: Could you check what this test reported for N/C(=N\c1nc2c(Br)cccc2s1)C(Br)Br ?
Result: active

Q: Could you check what this test reported for C=C1CC[C@H]2[C@@](C)(CCC3OC(c4ccc(OCc5cn(C6CC(OC(C)=O)C(OC(C)=O)C(COC(C)=O)O6)nn5)cc4)OC[C@]32C)[C@@H]1/C=C/C1=CCOC1=O (some centres not stated) ?
Result: inactive

###

System: SK-MEL-2 melanoma
Test: NCI-60 one-dose screen, 48 h
Conditions: 10 µM unless noted
About 83,000 compounds went through this panel and 20% of them were active in at least one assay; those are over-represented in the sample as a whole. Active and inactive are the calls of the source. The calls were made as follows: active = growth percent below 10; inactive = the rest.
Just give me one of these, please: active, inactive

Q: Could you check what this test reported for CS(=O)(=O)Nc1ccc(-c2nn(-c3ccc(S(C)(=O)=O)cc3)cc2/C=C/C(=O)c2ccc(NC(=O)CO[N+](=O)[O-])cc2)cc1 ?
Result: inactive

Q: Could you check what this test reported for NS(=O)(=O)c1ccc(Nc2nc(Nc3ccccc3)nc(-n3nc(-c4ccccc4)cc3-c3ccccc3)n2)cc1 ?
Result: inactive

Q: Could you check what this test reported for OC1CCN(CCCOc2c3ccccc3nc3c2oc2ccccc23)CC1 ?
Result: active

Q: Could you check what this test reported for C=CCn1c(SCC(=O)c2ccccc2)nnc1-c1c[nH]c2ccccc12 ?
Result: inactive

Q: Could you check what this test reported for COc1ccc(N/N=C/c2c(-c3ccc(S(C)(=O)=O)cc3)nc3ccccn23)cc1 ?
Result: inactive

Q: Could you check what this test reported for O=C(Oc1ccc2ccc(=O)oc2c1)c1ccc(Cl)cc1 ?
Result: inactive

Q: Could you check what this test reported for Clc1ccc2c(NCCCn3ccnc3)c3oc4ccc(Cl)cc4c3nc2c1 ?
Result: inactive

Q: Could you check what this test reported for Cc1ccc(/C=C/c2nn3c(-c4ccco4)nnc3s2)cc1C ?
Result: inactive

Q: Could you check what this test reported for CCOC(=O)c1c(Nc2ccccc2)nn2c(N)c(C#N)c(-c3ccc(F)cc3)nc12 ?
Result: inactive

Q: Could you check what this test reported for O=C(N/N=C/c1cccs1)c1[nH]c2ccc(Br)cc2c1-c1ccccc1 ?
Result: inactive

Q: Could you check what this test reported for Nc1nc(N)c2c(n1)NC(c1ccc(C(F)(F)F)cc1)CC(c1ccc(Nc3nc(NCCO)nc(Nc4ccc(Cl)cc4)n3)cc1)=N2 (stereo not drawn) ?
Result: active

Q: Could you check what this test reported for O=C1Nc2cc(Cl)ccc2/C1=C\c1ccc(OCc2ccc(Br)cc2F)cc1 ?
Result: active

Q: Could you check what this test reported for CCN1CCN(/C(=N\c2sc(-c3ccccc3)nc2-c2ccccc2)c2ccccc2)CC1 ?
Result: inactive

###

Tested on: OVCAR-3 ovarian
Assay: NCI-60 one-dose screen, 48 h
Settings: 10 µM unless noted
This is part of a sample that, as a whole, favours compounds with a hit. Of some 83,000 tested, about 20% had one in any assay. Activity calls are given as the source filed them. Rule for the calls: active = growth percent below 10; inactive = the rest.
Just give me one of these, please: active, inactive

Q: Could you check what this test reported for COc1ccc(/C=N/NC(=O)c2[nH]c3ccc(Br)cc3c2-c2ccccc2)s1 ?
Result: inactive

Q: Could you check what this test reported for CCN1C(=S)N(CC)C2C1NN=C1SC(c3ccccc3)=CC(=O)N12 (configuration not stated) ?
Result: inactive

Q: Could you check what this test reported for COC(=O)C(Cc1ccccc1)NS(=O)(=O)/N=C1\NC(=O)NC1=C(Cl)Cl (configuration not stated) ?
Result: inactive

Q: Could you check what this test reported for Cc1cc2nc3c4cc(Cl)ccc4n(CC(=O)NCCN(C)C)c3nc2cc1C ?
Result: inactive

Q: Could you check what this test reported for COC(=O)C(C)NS(=O)(=O)/N=C1\NC(=O)NC1=C(Cl)Cl (configuration not stated) ?
Result: inactive

Q: Could you check what this test reported for Cc1nc(-c2cc3ccccc3oc2=O)ccc1C(=O)/C=C/c1ccccn1 ?
Result: inactive

Q: Could you check what this test reported for C#C[C@]1(O)CC[C@H]2[C@@H]3CC=C4c5sc(-c6ccc(F)cn6)nc5CC[C@]4(C)[C@H]3CC[C@@]21C ?
Result: inactive

Q: Could you check what this test reported for CCOC(=O)c1c(Nc2ccccc2)nn2c(N)c(C#N)c(-c3ccc(F)cc3)nc12 ?
Result: inactive

Q: Could you check what this test reported for COc1cccc(OC)c1-c1nnn(C)c1C(=S)N1CCN(c2ccc([N+](=O)[O-])cc2Cl)CC1 ?
Result: inactive

Q: Could you check what this test reported for O=C(NNc1nc2cc(F)ccc2n2c(CN3CC4(COC4)C3)ccc12)c1cnccn1 ?
Result: inactive

Q: Could you check what this test reported for O=C(CN1CCOCC1)NNc1ncnc2ccccc12 ?
Result: inactive

Q: Could you check what this test reported for NS(=O)(=O)c1cccc(Nc2nc(SCC(=O)c3ccc(Cl)cc3)nc3ccccc23)c1 ?
Result: inactive

Q: Could you check what this test reported for CC(=O)Oc1ccccc1C(=O)Nc1ccc(C(=O)/C=C/c2cccs2)cc1 ?
Result: inactive

Q: Could you check what this test reported for CSc1ccc2c(c1)N(C(=O)/C(C#N)=C/c1c[nH]c3ccccc13)c1ccccc1S2 ?
Result: inactive

Q: Could you check what this test reported for O=C1/C(=C/C2=Cc3ccccc3OC2)SC(=S)N1c1ccc(F)cc1 ?
Result: inactive

Q: Could you check what this test reported for COc1cc(-c2nc3ccc(-c4nnc(SCC(=O)Nc5ccc(C(=O)/C=C/c6ccc(Cl)cc6)cc5)o4)cc3[nH]2)cc(OC)c1OC ?
Result: inactive

Q: Could you check what this test reported for Clc1ccc(-c2cn3cc(Cc4ccc(Cl)c(Cl)c4)sc3n2)cc1 ?
Result: inactive

Q: Could you check what this test reported for CCC/C=C/C=C/C(=O)N[C@@H](Cc1cc(F)cc(F)c1)C(=O)N[C@@H]1C(=O)N2CCC[C@H]2C(=O)N2CCCC[C@H]2C(=O)N[C@@H](C)C(=O)N2C[C@H](C)C[C@H]2C(=O)O[C@H]1C ?
Result: inactive

Q: Could you check what this test reported for COc1cc(/C=C/C(=O)c2ccc(C)cc2)ccc1Oc1nc(NCCO)nc(N2CCOCC2)n1 ?
Result: inactive

Q: Could you check what this test reported for CN(C)CCCOc1c2ccccc2nc2c1oc1ccc(Cl)cc12 ?
Result: inactive

Q: Could you check what this test reported for CCCC(=O)NC(c1ccc(N(CC)CC)cc1)c1cc(C)c2cccnc2c1O (configuration not stated) ?
Result: inactive

Q: Could you check what this test reported for N#Cc1nc(-c2ccccc2)oc1S(N)(=O)=O ?
Result: inactive

Q: Could you check what this test reported for O=C(Nc1nc2ccc(O)cc2s1)c1cccc(C(F)(F)F)c1 ?
Result: inactive

Q: Could you check what this test reported for CN1CCN(Cc2ccc(NC(=O)c3cncc(C#Cc4cnc5ccc(N6CCSCC6)nn45)c3)cc2C(F)(F)F)CC1 ?
Result: active

Q: Could you check what this test reported for Cc1cc(C(=O)Nc2sc3c(c2C(N)=O)CCC(=O)C3)ccc1OCCN1CCCCC1 ?
Result: inactive

Q: Could you check what this test reported for Nc1c(C(=O)Nc2ccc(Cl)cc2)sc2nc(-c3cnccn3)cc(-c3cccs3)c12 ?
Result: inactive

Q: Could you check what this test reported for Cc1nc(-c2cc3ccccc3oc2=O)ccc1C(=O)/C=C/c1ccc(N2CCOCC2)cc1 ?
Result: inactive

Q: Could you check what this test reported for O=C(O)CCCCCN1C(=O)/C(=C/c2ccc(O)c(O)c2)SC1=S ?
Result: inactive

Q: Could you check what this test reported for COc1ccc([C@@H]2c3[nH]c4ccccc4c3CC3C(=O)N(C4CCN(Cc5c(F)cccc5F)CC4)CC(=O)N32)c(OC)c1 (some centres not stated) ?
Result: inactive

Q: Could you check what this test reported for C#Cc1nc(C2=C(C)C(=N\O)/C(=N/O)C2)cs1 ?
Result: inactive

Q: Could you check what this test reported for O=[N+]([O-])c1ccc(O)c2ncccc12 ?
Result: inactive

Q: Could you check what this test reported for N#Cc1nc(-c2ccccc2)oc1S(=O)(=O)N1CCN(CCc2ccccn2)CC1 ?
Result: inactive

Q: Could you check what this test reported for COc1cc(-c2ccc3ncnc(NC(C)c4ccccc4)c3c2)cnc1OC (configuration not stated) ?
Result: inactive

Q: Could you check what this test reported for Cn1c(SCC(=O)Nc2ccc(-c3nc4ccc([N+](=O)[O-])cc4[nH]3)cc2)nc2ccccc2c1=O ?
Result: inactive

Q: Could you check what this test reported for O=C1[C@H]2Cc3c([nH]c4ccccc34)[C@@H](c3ccc(Br)cc3)N2C(=O)CN1C1CCN(Cc2ccccc2)CC1 ?
Result: inactive

Q: Could you check what this test reported for N#Cc1c(-c2ccc(Cl)cc2)nc2c(-c3ccccc3)c(Nc3ccccc3)nn2c1N ?
Result: inactive

Q: Could you check what this test reported for COc1cc(OC)c(C2C(Cl)C(=O)N2Nc2ncnc3ccccc23)cc1OC (configuration not stated) ?
Result: inactive
